Values compiled from ChEMBL document CHEMBL1133607.

species: Cavia porcellus; experiment: Ratio of affinity towards delta to kappa opioid receptor
Quantity: Selectivity ratio
// no unit, no text: just the number

Examples with answers:
Form: compound = CCCCC(=N)NCCCNC(=O)C(CC(C)C)NC(=O)CNC(=O)[C@]1(c2ccccc2)CC1CN1CC[C@@]2(C)c3cc(O)ccc3CC1C2C (some centres undefined) ; Selectivity ratio = 275

Measured Selectivity ratio of CCCC(=N)NCCCCCNC(=O)C(CC(C)C)NC(=O)CNC(=O)[C@]1(c2ccccc2)CC1CN1CC[C@@]2(C)c3cc(O)ccc3CC1C2C (some centres undefined) : 79.8

Sure, the documented Selectivity ratio for CC(C)CC(NC(=O)CNC(=O)[C@]1(c2ccccc2)CC1CN1CC[C@@]2(C)c3cc(O)ccc3CC1C2C)C(=O)NCCCCCN (some centres undefined) is 38.9

Field Selectivity ratio (entry CCCCC(=N)NCCCCCCNC(=O)C(CC(C)C)NC(=O)[C@]1(c2ccccc2)CC1CN1CC[C@@]2(C)c3cc(O)ccc3CC1C2C (some centres undefined) ) reads 40.2

Quick note, Selectivity ratio for CC(C)CC(NC(=O)CNC(=O)[C@]1(c2ccccc2)CC1CN1CC[C@@]2(C)c3cc(O)ccc3CC1C2C)C(=O)NCCCN=C(N)N (some centres undefined) landed at 51.4

Further cases:
Noted for CCC(=N)NCCCCCNC(=O)C(CC(C)C)NC(=O)CNC(=O)[C@]1(c2ccccc2)CC1CN1CC[C@@]2(C)c3cc(O)ccc3CC1C2C (some centres undefined) : its Selectivity ratio reads 81.6

Sample CC(C)CC(NC(=O)CNC(=O)[C@]1(c2ccccc2)CC1CN1CC[C@@]2(C)c3cc(O)ccc3CC1C2C)C(=O)NCCCCN (some centres undefined) ; Selectivity ratio observed: 38.7

// CCC(=N)NCCCCCCNC(=O)C(CC(C)C)NC(=O)[C@]1(c2ccccc2)CC1CN1CC[C@@]2(C)c3cc(O)ccc3CC1C2C (some centres undefined) : Selectivity ratio value = 30.5

For this compound ( CCC(=N)NCCCCCCNC(=O)C(CC(C)C)NC(=O)CNC(=O)[C@]1(c2ccccc2)CC1CN1CC[C@@]2(C)c3cc(O)ccc3CC1C2C (some centres undefined) ), measured Selectivity ratio is 108

Lab note: measured Selectivity ratio of CCCCC(=N)NCCCCCNC(=O)C(CC(C)C)NC(=O)[C@]1(c2ccccc2)CC1CN1CC[C@@]2(C)c3cc(O)ccc3CC1C2C (some centres undefined) was 36.6

Short answer for CCCCC(=N)NCCCCNC(=O)C(CC(C)C)NC(=O)CNC(=O)[C@]1(c2ccccc2)CC1CN1CC[C@@]2(C)c3cc(O)ccc3CC1C2C (some centres undefined) : Selectivity ratio was 359

Summary for this compound, CC(C)CC(NC(=O)[C@]1(c2ccccc2)CC1CN1CC[C@@]2(C)c3cc(O)ccc3CC1C2C)C(=O)NCCCCCCN=C(N)N (some centres undefined) : Selectivity ratio is 20.3

Lookup result for CC(C)CC(NC(=O)CNC(=O)[C@]1(c2ccccc2)CC1CN1CC[C@@]2(C)c3cc(O)ccc3CC1C2C)C(=O)NCCCCN=C(N)N (some centres undefined) ; measured Selectivity ratio: 52.1

# compound CC(C)CC(NC(=O)CNC(=O)[C@]1(c2ccccc2)CC1CN1CC[C@@]2(C)c3cc(O)ccc3CC1C2C)C(=O)NCCCCCN=C(N)N (some centres undefined) ; its Selectivity ratio = 73.1
